src = ChEMBL document CHEMBL2396547

Test: Hemolytic activity in mouse RBC at 100 uM after 1 hr by ELISA relative to control
Assay type: ADME, cell-based, Erythrocyte
Details: mouse red blood cells, read-out: Activity
Value Kind: hemolysis at 1 h, 100 µM (%)
Give the value in % but do not write % after it.

{"Smiles Entry": "CC(C)c1ccc2c(c1)CC[C@H]1[C@](C)(CN)CCC[C@]21C", "Value Kind": "hemolysis at 1 h, 100 µM", "Number": 17.9}

Proceeding to the next compound to report its hemolysis at 1 h, 100 µM.
What hemolysis at 1 h, 100 µM value was documented for this compound, CC(C)c1ccc2c(c1)CC[C@H]1[C@](C)(CNC(=S)N[C@H]3CCCC[C@@H]3N)CCC[C@]21C ?
74.4
